Molecular target: 3H-Prazosine binding (rat brain membranes)
Assay: 3H-Prazosine binding
Settings: 0.2 nM 3H-Prazosine, 30 minutes at room temperature
Structures can show the parent of a compound that is named as a salt.
quantityMeasured: IC50 (µM)
Express your answer in µM, writing the number without its unit.

stdin: Tell me the measured IC50 of Cc1ccc(CC2(O)CCN(C[C@H]3CCc4cc(O)ccc4[C@@H]3O)CC2)cc1 (racemic) [Example 27, fumarate salt] , please.
stdout: 6

====

Listing: melting point of selected molecules

Cc1ccc(CC2(O)CCN(Cc3cc4ccc(O)cc4o3)CC2)cc1.Cl: 214 °C
Cc1ccc(CC2(O)CCN(CC3Cc4cc(O)ccc4N3)CC2)cc1 (racemic) [Example 21]: 90 to 94 °C
Cc1ccc(CC2(O)CCN(CC3=Cc4ccc(O)cc4C3)CC2)cc1 [Example 20]: 154 to 157 °C
Cc1ccc(CC2(O)CCN(CC3Cc4ccc(O)cc4O3)CC2)cc1.Cl (racemic): 203 to 205 °C

stdin: Tell me the measured melting point of Cc1ccc(CC2(O)CCN(CC3Cc4ccc(O)cc4C3)CC2)cc1.Cl (racemic) , please.
stdout: 88 to 90 °C

stdin: Tell me the measured melting point of Oc1ccc2c(c1)CC[C@H](CN1CCC(O)(Cc3ccccc3)CC1)[C@H]2O (racemic) [Example 29] , please.
stdout: 94 to 98 °C

stdin: Tell me the measured melting point of CC(=O)Nc1ccc2c(c1)CCC(CN1CCC(O)(Cc3ccccc3)CC1)C2=O.Cl (racemic) , please.
stdout: 123 to 126 °C

These entries and their values trace back to patent US6359138B1.
